Origin of values: patent US12054660B2

assay: Evaluation of liquid crystallinity (hot stage, polarization microscope); format: physicochemical; parameters: key: A case of having liquid crystallinity was evaluated as A; a case of having no liquid crystallinity was evaluated as B; details: heated on a hot stage
MEASURED PROPERTY: Liquid crystallinity

Example entries begin here.
INSERT INTO results (molecule, endpoint_result) VALUES
  ('C=CC(=O)OCCSc1ccc(C#Cc2ccc(COc3ccc(C#Cc4ccc(SCCOC(=O)C=C)cc4)cc3C)cc2)cc1 [Compound A-6]', 'A'),
  ('CC(=O)OCCCCCCCCCCOc1ccc(C#Cc2ccc(OC(=O)c3ccc(C#Cc4ccc(OCCCCCCCCCCOC(C)=O)c(F)c4)cc3)cc2)cc1F [RA-1, reference compound]', 'A'),
  ('C=CC(=O)OCCSc1ccc(C#Cc2ccc(COc3ccc(OCc4ccc(C#Cc5ccc(SCCOC(=O)C=C)cc5)cc4)c(C(=O)OC)c3)cc2)cc1 [Compound A-14]', 'A'),
  ('CC(=O)OCCSc1ccc(C#Cc2ccc(OCc3ccc(C#Cc4ccc(COc5ccc(C#Cc6ccc(SCCOC(C)=O)cc6)cc5C)cc4)cc3)c(C)c2)cc1 [Compound A-15]', 'A');

Recorded Liquid crystallinity of C=CC(=O)OCCSc1ccc(C#Cc2ccc(OCc3ccc(C#Cc4ccc(SCCOC(=O)C=C)cc4)s3)c(C(=O)OC)c2)cc1 [Compound A-16] , please.
A

Recorded Liquid crystallinity of C=CC(=O)OCCSc1ccc(C#Cc2ccc(SCc3ccc(C#Cc4ccc(SCCOC(=O)C=C)cc4)c(OC)c3)cc2)cc1 [Compound A-5] , please.
B

---

Assay: Evaluation of liquid crystallinity (hot stage, polarization microscope)
Type: physicochemical
Parameters: key: A case of having liquid crystallinity was evaluated as A; a case of having no liquid crystallinity was evaluated as B
Conditions: heated on a hot stage
Description: As a specific observation method, optical anisotropy and fluidity derived from the liquid crystal phase can be checked by carrying out an observation under a polarization microscope while heating or lowering the temperature of the compound with a hot stage or the like. […]
MEASURED PROPERTY: Liquid crystallinity

Example entries begin here.
INSERT INTO measurements (molecule, measured_property, endpoint_result) VALUES
  ('C=CC(=O)OCCSc1ccc(C#Cc2ccc(C(=O)Oc3ccc(C#Cc4ccc(SCCOC(=O)C=C)cc4)cc3C(=O)OC)cc2)cc1', 'Liquid crystallinity', 'A'),
  ('CC(=O)OCCSc1ccc(C#Cc2ccc(COc3ccc(C#Cc4ccc(CCOC(C)=O)cc4)cc3)cc2C)cc1', 'Liquid crystallinity', 'A'),
  ('C=CC(=O)OCCOc1ccc(C#Cc2ccc(SCCSc3ccc(C#Cc4ccc(OCCOC(=O)C=C)c(C)c4)cc3)cc2)cc1C', 'Liquid crystallinity', 'B'),
  ('C=CC(=O)OCCCCSc1ccc(C#Cc2ccc(NC(=O)c3ccc(SCCCCOC(=O)C=C)cc3)c(C(F)(F)F)c2)cc1 [RA-2, reference compound]', 'Liquid crystallinity', 'A'),
  ('C=CC(=O)OCCSc1ccc(C#Cc2ccc(OCCOc3ccc(C#Cc4ccc(SCCOC(=O)C=C)cc4)cc3C(=O)OC)c(C(=O)OC)c2)cc1', 'Liquid crystallinity', 'A');

Recorded Liquid crystallinity of CC(=O)OCCSc1ccc(C#Cc2ccc(CSc3ccc(C#Cc4ccc(CCOC(C)=O)cc4)cc3)cc2C)cc1 , please.
B

Recorded Liquid crystallinity of C=CC(=O)OCCSc1ccc(C#Cc2ccc(COc3ccc(C#Cc4ccc(SCCOC(=O)C=C)cc4)cc3C(=O)OC)cc2)cc1 , please.
A
